# TESTED_TARGET: Beta Secretase enzyme (BACE1) (Homo sapiens, UniProt P56817)
# Sequence (P56817 46-501): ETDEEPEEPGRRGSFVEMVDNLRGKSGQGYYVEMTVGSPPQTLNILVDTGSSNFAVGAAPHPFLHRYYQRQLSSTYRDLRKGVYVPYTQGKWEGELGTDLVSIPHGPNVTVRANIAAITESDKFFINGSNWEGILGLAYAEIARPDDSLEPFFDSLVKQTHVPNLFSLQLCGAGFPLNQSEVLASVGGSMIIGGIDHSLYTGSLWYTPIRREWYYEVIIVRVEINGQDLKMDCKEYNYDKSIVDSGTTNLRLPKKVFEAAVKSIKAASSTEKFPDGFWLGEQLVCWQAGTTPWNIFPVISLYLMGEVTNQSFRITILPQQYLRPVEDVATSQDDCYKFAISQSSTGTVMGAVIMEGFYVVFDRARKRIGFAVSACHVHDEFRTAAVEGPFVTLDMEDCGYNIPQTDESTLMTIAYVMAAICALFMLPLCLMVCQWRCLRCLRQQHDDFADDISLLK
# RUN_DESCRIPTION: In vitro enzymatic BACE FRET assay
# Format: biochemical
# ASSAY_CONDITIONS: average IC50, enzyme assay; read-out: BACE1 FRET assay IC50
pIC50: −log10 of the molar value.
READOUT_LABEL: pIC50

CC1(C)C(N)=N[C@](CF)(c2cc(NC(=O)c3cnc(OCC4CC4)cn3)ccc2F)CS1(=O)=O ... 9.30
CC1(C)C(N)=N[C@](C)(c2cc(Nc3ncc(CO)c4cc(Cl)cnc34)ccc2F)CS1(=O)=O ... 8.35
CC1(C)C(N)=N[C@](CF)(c2cc(Nc3nncc4cc(Br)ccc34)ccc2F)CS1(=O)=O ... 7.52
COc1cnc2c(Oc3ccc(F)c([C@]4(C)CS(=O)(=O)C(C)(C)C(N)=N4)c3)nccc2c1 ... 5.68
CC1(C)C(N)=N[C@](CF)(c2cc(Nc3ncc(F)c4cc(O)cnc34)ccc2F)CS1(=O)=O ... 9.22
CC1(C)C(N)=N[C@](C)(c2cc(Nc3ncnc4cc(OCC5CC5)cnc34)ccc2F)CS1(=O)=O ... 8.81
Cc1cc(OC(F)F)cnc1C(=O)Nc1cnc(F)c([C@]2(C)CS(=O)(=O)C3(CCC3)C(N)=N2)c1 ... 8.19
CC1(C)C(N)=N[C@](C)(c2cc(Nc3nccc4cc(OCC(F)(F)F)cnc34)ccc2F)CS1(=O)=O ... 8.35

a: COc1cnc2c(Nc3ccc(F)c([C@]4(CF)CS(=O)(=O)C(C)(C)C(N)=N4)c3)ncc(F)c2c1
b: COc1cnc2c(Nc3ccc(F)c([C@]45COC[C@H]4S(=O)(=O)C(C)(C)C(N)=N5)c3)nccc2n1
IN: Endpoint returns whichever of a and b has the numerically higher pIC50. Select an item and report its label.
OUT: a
(a: 9.26, b: 8.52)

P: CC1(C)C(N)=N[C@](CF)(c2cc(NC(=O)c3ccc(C(F)F)cn3)ccc2F)CS1(=O)=O
Q: CC1(C)C(N)=N[C@](C)(c2cc(Oc3cc(Br)ccn3)ccc2F)CS1(=O)=O
IN: Endpoint returns whichever of P and Q has the numerically higher pIC50. Select an item and report its label.
OUT: P
(P: 9.10, Q: 7.43)

a: N#Cc1cnc2c(Nc3ccc(F)c([C@]4(CF)CS(=O)(=O)C5(CCC5)C(N)=N4)c3)ncc(F)c2c1
b: CC1(C)C(N)=N[C@](C)(c2cc(NC(=O)c3ccc(C(F)F)cn3)ccc2F)C(F)S1(=O)=O (some centres unmarked)
IN: Endpoint returns whichever of a and b has the numerically higher pIC50. Select an item and report its label.
OUT: a

1: CC1(C)C(N)=N[C@](C)(c2cc(Nc3ncc(F)c4cc(C#N)cnc34)cnc2F)CS1(=O)=O
2: Cc1ccc(C#N)c(Oc2ccc(F)c([C@]3(C)CS(=O)(=O)C(C)(C)C(N)=N3)c2)n1
3: CC1(C)C(N)=N[C@](C)(c2cc(Oc3ncc(F)c(C(F)(F)F)c3F)ccc2F)CS1(=O)=O
4: COc1cnc2c(Nc3cnc(F)c([C@]4(C)CS(=O)(=O)C5(CCC5)C(N)=N4)c3)nccc2n1
IN: I would appreciate it if you could sort these 4 molecules by pIC50, starting from the smallest number. Put the labels in the order asked and list them.
OUT: 3, 2, 4, 1
